Values compiled from patent US20180148504A1.

Biological target: T1, recombinant purified FRα (ECL assay calibrator) (human, UniProt P15328 25-234)
T1 construct: Calibrator of the ECL sandwich assays; also called FRα calibrator; FRα standard
T1 sequence (P15328 25-234 limits assumed): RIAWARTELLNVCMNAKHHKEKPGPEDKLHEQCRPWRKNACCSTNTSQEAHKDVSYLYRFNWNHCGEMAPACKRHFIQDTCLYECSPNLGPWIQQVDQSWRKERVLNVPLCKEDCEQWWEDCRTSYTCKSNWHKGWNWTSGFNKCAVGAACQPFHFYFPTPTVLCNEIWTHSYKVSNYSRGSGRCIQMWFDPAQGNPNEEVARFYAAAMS
Assay: ECL sandwich, FRα calibrator; capture 30G6.G6.G4.E9; binder = detection Ab
experimental.readout: Specific signal at 500 pg/mL

binder	Specific signal at 500 pg/mL
Monoclonal antibody 24H8.D3 (antibody, mouse IgG1, V domains shown, Biotin-conjugated when used as capture antibody in the ECL assay; also called ATCC PTA-123090) VH: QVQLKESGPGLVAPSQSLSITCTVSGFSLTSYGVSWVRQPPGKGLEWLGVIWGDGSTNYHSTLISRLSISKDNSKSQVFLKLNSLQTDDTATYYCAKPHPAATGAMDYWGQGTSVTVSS VL: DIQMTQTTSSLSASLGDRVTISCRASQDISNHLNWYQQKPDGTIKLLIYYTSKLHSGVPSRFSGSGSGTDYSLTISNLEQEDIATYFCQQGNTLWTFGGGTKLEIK	20300
Monoclonal antibody 26A9.C4 (antibody, mouse IgG1, V domains shown, Murine IgG1 kappa from hybridoma; also called ATCC PTA-123092) VH: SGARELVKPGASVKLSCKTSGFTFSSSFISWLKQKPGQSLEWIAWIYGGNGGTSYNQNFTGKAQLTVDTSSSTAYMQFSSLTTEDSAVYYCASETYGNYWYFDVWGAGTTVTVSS VL: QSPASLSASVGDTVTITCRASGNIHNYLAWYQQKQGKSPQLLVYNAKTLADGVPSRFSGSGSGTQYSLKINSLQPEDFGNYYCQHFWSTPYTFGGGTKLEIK	6710

Prompt: Need Specific signal at 500 pg/mL of Monoclonal antibody 1A8.G11.E7 (antibody, mouse IgG1, V domains shown, Murine IgG1 kappa from hybridoma; also called ATCC PTA-123100) VH: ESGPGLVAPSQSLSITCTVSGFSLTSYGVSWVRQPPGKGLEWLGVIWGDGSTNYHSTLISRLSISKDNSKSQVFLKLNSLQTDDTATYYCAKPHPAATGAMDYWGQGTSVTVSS VL: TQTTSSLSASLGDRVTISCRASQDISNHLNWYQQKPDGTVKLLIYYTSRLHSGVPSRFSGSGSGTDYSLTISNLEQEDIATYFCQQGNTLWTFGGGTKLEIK , thanks.
Response: 17900
